// reported GI50 for each item listed
test system: SK-OV-3; assay: NCI tumour cell line growth inhibition, 48 h
The source made the active and inactive calls. Cut-off read from the data, not from the text of the source: active = GI50 up to about 1.1 µM and inactive = higher.

Worked examples follow.
1. Cc1nc(Nc2ccc([N+](=O)[O-])cc2)sc1C(/C=C/c1ccc(N(C)C)cc1)=N/NC(=O)c1ccccc1; > 100 µM (inactive)
2. Clc1ccccc1C1N2CCCCC2[C@@H]2c3[nH]c4ccccc4c3CCN12 (stereo partly specified); 21.6 µM (inactive)
3. COc1nc(N=P(c2ccccc2)(c2ccccc2)c2ccccc2)cc(=O)n1C; > 100 µM (inactive)
4. CC1(C)C2CCC(O)(C2)C1N (stereo unspecified); > 100 µM (inactive)
5. O=C(OCc1ccccc1)N1CCNCCNCCN(C(=O)OCc2ccccc2)CCNCC1; > 100 µM (inactive)

Query compound follows.
Please look up its GI50: CCOC(=O)C(C)c1nc2c(Cl)c3ncccc3cc2[nH]c1=O (stereo unspecified)
> 100 µM (inactive)

---

system: SF-539; assay: NCI tumour cell line growth inhibition, 48 h
Activity calls are given as the source filed them. Cut-off read from the data, not from the text of the source: active = GI50 up to about 1.1 µM and inactive = higher.
// reported GI50 for each item listed

Worked examples follow.
1. CCCCCCCc1cscc1-c1cscc1Br; > 100 µM (inactive)
2. O=c1c2cccnc2[s+]([O-])n1Cc1ccccc1 (stereo unspecified); > 100 µM (inactive)
3. N#CCN1C(=O)c2cc([N+](=O)[O-])cc3cc([N+](=O)[O-])cc(c23)C1=O; 14.6 µM (inactive)
4. C[C@H](NS(=O)(=O)c1ccc(NC(=O)c2ccccc2)cc1)C(=O)O; > 100 µM (inactive)

Please look up its GI50: O=C1C2C=CC(n3[nH]c(=O)n(Cc4ccccc4)c3=O)CC2C(=O)N1c1cccc(Cl)c1 (stereo unspecified)
> 100 µM (inactive)

Please look up its GI50: O=C(Nc1ccc(Cl)c(Cl)c1)C(=O)C(C(=O)c1ccccc1F)C1OC(=O)c2ccccc21 (stereo unspecified)
11.1 µM (inactive)

Please look up its GI50: CCCCC1Nc2ccccc2-c2ccnc(Cl)c21 (stereo unspecified)
19.2 µM (inactive)

Please look up its GI50: COC(OC)c1cccc2c1C(=O)CCC1(CC2)OCCCCO1
> 100 µM (inactive)

Please look up its GI50: N=c1n(C(=O)N2CCCC2)c2cc(Cl)ccc2n1C1=NCCN1
55.2 µM (inactive)

Please look up its GI50: Cn1c(=O)c(Cl)c(N=[N+]=[N-])c2ccccc21
> 100 µM (inactive)

Please look up its GI50: CC1(C)C2CCC1C(=O)[C@@]1(C=CC(=O)CC1)C2 (stereo partly specified)
> 100 µM (inactive)

---

// reported GI50 for each item listed
test system: DU-145; assay: NCI tumour cell line growth inhibition, 48 h
Activity calls are given as the source filed them. Rule as the data show it: active = GI50 up to about 1.1 µM and inactive = higher.

Worked examples follow.
1) Cc1nc2cc3ccccc3cc2[nH]c1=O; > 100 µM (inactive)
2) Cn1c(=O)n(-c2c3ccccc3c(Cl)c3ccccc23)n(C(C)(C)C)c1=O; > 100 µM (inactive)
3) Cc1nn(-c2ccccc2)c2c1N=C(C(=O)O)CC(c1ccccc1)=N2; > 10 µM (inactive)
4) CC(C)(Cl)C(Br)CC/C(=C/CCl)CBr.CC(C)(Cl)C(Br)CC/C(=C\CCl)CBr (stereo not given); 3.32 µM (inactive)
5) CN(C)CCCNC(=S)S; > 100 µM (inactive)
6) CC1=NN(c2ccc(S(=O)(=O)O)cc2)C2(C1)C(Cl)C(=O)N2c1nc2ccccc2s1 (stereo not given); > 100 µM (inactive)
7) O=C(O)CNC(=O)C1NC(C(F)(F)F)(C(F)(F)F)OC1(C(F)(F)F)C(F)(F)F (stereo not given); > 100 µM (inactive)
8) Cc1cc2nc(-c3c(F)cccc3F)n(Cc3c(F)cccc3F)c2cc1C; 23.6 µM (inactive)

Please look up its GI50: Nc1ccc(S(=O)(=O)Nc2cnc3ccccc3n2)cc1
> 100 µM (inactive)

Please look up its GI50: CCCCNC(=S)Nc1nc(C(=O)NNC(=S)NCc2ccccc2)cs1
39.6 µM (inactive)

---

test system: HOP-92; assay: NCI tumour cell line growth inhibition, 48 h
Activity calls are given as the source filed them. Cut-off read from the data, not from the text of the source: active = GI50 up to about 1.1 µM and inactive = higher.
API: response.call in active, inactive

Would you please look over these solved cases?
1) CCOC(=O)c1cn(CC)c2ccc3c(c2c1=O)S(=O)(=O)C=C3; inactive
2) OC1CCCN(C2(c3cccs3)CCCCC2)C1 (stereo not given); inactive
3) CCOC(=O)C1=NOC2(C=C(Br)C(=O)C(Br)=C2)C1; inactive
4) S=C(NC/C(Br)=C/Br)Nc1cccc2ccccc12; inactive

Record request — test call for CC1=CC=C2C(C)(C)CC[C@@H]3OC(=O)[C@H]1[C@]23C
inactive

Record request — test call for COc1cccc(/C(CC(O)(C(F)(F)F)C(F)(F)F)=N\N(C)C)c1
inactive

Record request — test call for CCc1ncc(C(C)(O)c2ccccc2)n1Cc1ccccc1 (stereo not given)
inactive

Record request — test call for CC(C)=CCC[C@@H](C)C1=C(O)C(=O)C(C)=C(Nc2ccccc2)C1=O
inactive

Record request — test call for OC(C1CCCC1=N/N=C1/CCCC1C(O)(C(F)(F)Cl)C(F)(F)Cl)(C(F)(F)Cl)C(F)(F)Cl (stereo not given)
inactive

Record request — test call for CCCCC1Nc2ccccc2-c2ccnc(Cl)c21 (stereo not given)
inactive

Record request — test call for C=C[C@]1(O)CCC[C@]2(C)C(=O)CCC12C (stereo not given in full)
inactive

Record request — test call for Cn1ncc2ccc3[nH]c4ccccc4c(=O)c3c21
inactive

Record request — test call for CCC(=O)C(C)C1=Nc2nnc(CCCCCCCc3nnc4n3C(=O)C(C(C)C(=O)CC)=N4)n2C1=O (stereo not given)
inactive

Record request — test call for O=C1C(=Cc2ccccc2[N+](=O)[O-])N=C(c2ccccc2)N1n1c(-c2ccccc2)nc2ccccc2c1=O
inactive

Record request — test call for Cc1ccc(O)c(C2=CC3=NNC(=O)C3C(c3cccc(Cl)c3)C2)c1 (stereo not given)
inactive

Record request — test call for O=C(NCCCN1CCN(CCCNC(=O)c2cc(-c3ccccc3)nc3ccccc23)CC1)c1cc(-c2ccccc2)nc2ccccc12
inactive

Record request — test call for O=C1C2C=CC(n3[nH]c(=O)n(Cc4ccccc4)c3=O)CC2C(=O)N1c1cccc(Cl)c1 (stereo not given)
inactive

Record request — test call for CCN(CC)CC(=O)O[C@]1(CC)C(=O)OCc2c1cc1n(c2=O)Cc2cc3ccccc3nc2-1
active

Record request — test call for CCC1CNC(=O)CC1CC(=O)OC (stereo not given)
inactive

Record request — test call for CCCCOC(=O)CNC(=O)OC/C=C/C#CC#C/C=C/COC(=O)NCC(=O)OCCCC
inactive

---

tested on: SF-268; assay: NCI tumour cell line growth inhibition, 48 h
Active and inactive are the calls of the source. Rule as the data show it: active = GI50 up to about 1.1 µM and inactive = higher.
API: response.call in active, inactive

Would you please look over these solved cases?
1) O=C1CSc2ccnc(=O)n21; inactive
2) O=C(OCc1ccccc1)c1ccc(NCc2cc(O)ccc2O)cc1; inactive
3) O=[N+]([O-])c1ccc(/C=N/C23CC4CC(CC(C4)C2)C3)cc1; inactive
4) NCC(Cl)C(O)c1c[nH]c(N)n1 (configuration not stated); inactive
5) N#Cc1nc(C(O)c2ccccc2)oc1N (configuration not stated); inactive

Record request — test call for CNC(Cc1ccccc1)c1cccc(OC)c1O (configuration not stated)
inactive

Record request — test call for S=C=NCCc1ccccc1 [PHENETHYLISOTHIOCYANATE]
active

---

system: HT-29; experiment: NCI tumour cell line growth inhibition, 48 h
Activity calls are given as the source filed them. Cut-off read from the data, not from the text of the source: active = GI50 up to about 1.1 µM and inactive = higher.
// reported GI50 for each item listed

Worked examples follow.
1. COC(=O)C12C3C4C1C1C2C3C41C(=O)O (configuration not stated); > 100 µM (inactive)
2. C#CCC(O)c1ccc(OC)c(OCc2ccccc2)c1 (configuration not stated); > 100 µM (inactive)
3. COc1cc(CC(C)=O)cc(OC)c1; 42.8 µM (inactive)
4. Cc1nn(-c2ccccc2)c2c1N=C(C(=O)O)CC(c1ccccc1)=N2; > 10 µM (inactive)
5. COc1cc(C)c(CC/C(C)=C/Cc2cc(O)ccc2O)c(C)c1C [PANICEIN A HYDROQUINONE]; > 25 µM (inactive)
6. Nc1ccc(SC23CC4CC(CC(C4)C2)C3)cc1; > 100 µM (inactive)
7. COC(=O)N/N=C(/CCC(=O)Nc1ccc(C)c(C)c1)CC(=O)C(C)(C)C; > 100 µM (inactive)
8. O=C(Nc1ccccc1)Oc1ccccc1C1CCCCC1; 20.4 µM (inactive)
9. CN1C(=O)N(c2nc3ccccc3[nH]2)C(C)(C)C1=O; > 100 µM (inactive)
10. O=S(=O)(N1CCCCN(S(=O)(=O)C(F)(F)F)CCCN(S(=O)(=O)C(F)(F)F)CCCCN(S(=O)(=O)C(F)(F)F)CCCN(S(=O)(=O)C(F)(F)F)CCCCN(S(=O)(=O)C(F)(F)F)CCCN(S(=O)(=O)C(F)(F)F)CCCCN(S(=O)(=O)C(F)(F)F)CCC1)C(F)(F)F; > 31.6 µM (inactive)

Please look up its GI50: Cn1ncc2ccc3[nH]c4ccccc4c(=O)c3c21
35 µM (inactive)

Please look up its GI50: O=Cc1coc2ccccc2c1=O
20.7 µM (inactive)

Please look up its GI50: Nn1c(CCCCCCCCc2nnc(-c3c(O)ccc4ccccc34)n2N)nnc1-c1c(O)ccc2ccccc12
> 100 µM (inactive)
